tested on: cytosolic chaperonin (CCT/TRiC complex); assay: High-Throughput Screening for Modulators of Cytosolic Chaperonin Activity; details: purified chaperonin ATPase assay, HTRF ADP detection, 30 min
The campaign covered roughly 360,000 compounds. About 1,100 (0.31%) were called active. Cut-off read from the data, not from the text of the source: active = activity change below about -30%; inactive = the rest. Many of the other results were omitted from the sample, so actives are more common in it than they were.
Outcome codes: active, inactive

{"columns": ["compound", "label"],
 "data": [
  ["O=C(NCc1ccncc1)C(=O)NCC1OCCN1S(=O)(=O)c1ccc(Br)cc1 (stereo unspecified)", "active"],
  ["CCOC(=O)c1c(CN2CCOCC2)n(-c2ccccc2)c2ccc(O)cc12", "inactive"],
  ["O=C(Cc1ccccn1)c1ccc(O)cc1O", "inactive"],
  ["COc1ccc(CCNC(=O)CS(=O)(=O)Cc2nc(-c3ccc(C)cc3)oc2C)cc1OC", "inactive"],
  ["Nc1nonc1-n1nnc(C(=O)N/N=C/c2cc(Br)ccc2O)c1CSC1=NCCS1", "inactive"],
  ["CC(=O)c1c(C)n(-c2ccc(C)cc2)c2ccc(O)cc12", "active"],
  ["Cc1ccccc1NC(=O)c1cc(S(=O)(=O)N2CCOCC2)cs1", "inactive"],
  ["CCOc1ccccc1NC(=O)CCc1nnc2ccc(NCc3ccco3)nn12", "inactive"],
  ["O=C(NCc1ccccc1)C(=O)NCC1OCCN1S(=O)(=O)c1ccc(Br)cc1 (stereo unspecified)", "inactive"],
  ["Cc1ccc(-c2nc(CS(=O)(=O)CC(=O)NCc3ccc4c(c3)OCO4)c(C)o2)cc1", "active"],
  ["NC(=O)c1nsc(C(=O)N(CCCN2CCOCC2)C(C(=O)NC2CCCCC2)c2ccc(Cl)cc2)c1N (stereo unspecified)", "inactive"],
  ["CC(=O)c1ccc(NC(=O)CCc2nnc3ccc(NCc4ccco4)nn23)cc1", "inactive"],
  ["COc1ccc(-c2nc(CS(=O)(=O)CC(=O)NCc3cccc(Br)c3)c(C)o2)cc1", "inactive"],
  ["C/C(Cc1ccccc1)=N\\NC(=O)CNC(=O)c1ccccc1Cl", "inactive"],
  ["Cc1nc(SCC(=O)NC2CCCC2)[nH]c(=O)c1C", "inactive"],
  ["COc1ccc(CC(=O)c2ccc(O)cc2O)cc1OC", "active"],
  ["CC(=O)c1c(C)n(-c2ccc(N(C)C)cc2)c2ccc(OCC(N)=O)cc12", "inactive"],
  ["O=C(Nc1cccnc1Oc1ncnc2cc(Cl)ccc12)c1ccc(F)cc1", "inactive"],
  ["COc1ccc(CCNC(=O)CCc2ccccc2O)cc1OC", "inactive"],
  ["O=C(CCc1nnc2ccc(NCc3ccco3)nn12)Nc1cc(F)ccc1F", "active"],
  ["COc1ccc(S(=O)(=O)N2CCOC2CNC(=O)C(=O)NCc2ccncc2)cc1OC (stereo unspecified)", "inactive"]
]}

* * *

system: cytosolic chaperonin (CCT/TRiC complex); assay: High-Throughput Screening for Modulators of Cytosolic Chaperonin Activity; conditions: purified chaperonin ATPase assay, HTRF ADP detection, 30 min
The whole screen tested about 360,000 compounds, of which about 1,100 (0.31%) were called active. Cut-off read from the data, not from the text of the source: active = activity change below about -30%; inactive = the rest. Only a selection was taken, and actives are over-represented in it overall.
Outcome codes: TRUE = active, FALSE = inactive

{"columns": ["compound", "label"],
 "data": [
  ["COc1ccc(CCNS(=O)(=O)c2ccc(F)cc2)cc1OC", "TRUE"],
  ["Cc1ccc(C2C(C#N)C(C#N)N3CCCN23)cc1 (stereo unspecified)", "FALSE"],
  ["COc1ccc(C2=NOC3(CC(=O)N(c4ccc(Cl)cc4)C3=O)C2)c(OC)c1 (stereo unspecified)", "FALSE"],
  ["O=C(CSCc1c(F)cccc1Cl)NCC1CCCO1 (stereo unspecified)", "FALSE"],
  ["CCc1cc(CNC(=O)CC2C(=O)NCCN2CC2CCCCC2)on1 (stereo unspecified)", "FALSE"],
  ["CCCc1nc2c(C)cc(-c3nc4ccccc4n3C)cc2n1Cc1ccc(-c2ccccc2C(=O)O)cc1", "FALSE"],
  ["C=CCN(N=Nc1cccc([N+](=O)[O-])c1)c1cccc([N+](=O)[O-])c1", "FALSE"],
  ["CC(C)C(NC(=O)C1CCC(C(C)(C)C)CC1)C(=O)NCCCN1CCCCC1 (stereo unspecified)", "FALSE"],
  ["CCOC(=O)N/N=C1\\CC(C)S(=O)(=O)c2ccc(Cl)cc21 (stereo unspecified)", "FALSE"],
  ["CC(NS(=O)(=O)c1ccc(Cl)cc1)C(=O)Nc1ccc2c(c1)OCCO2 (stereo unspecified)", "TRUE"],
  ["CCc1nc2sc3c(Cl)ncnc3c2c2c1CCCC2", "FALSE"],
  ["COC(=O)c1ccccc1NC(=O)CSc1ccccn1", "FALSE"],
  ["COc1ccc(CCNS(=O)(=O)c2ccc(C(=O)NCc3ccco3)cc2)cc1OC", "FALSE"],
  ["CC(=O)Nc1ccc(NC(=O)C(NS(=O)(=O)c2ccc3c(c2)OCCO3)C(C)C)cc1 (stereo unspecified)", "FALSE"],
  ["Cc1[nH]n(C)c(=O)c1C(=O)c1c(-c2c(Cl)cccc2Cl)noc1C", "TRUE"],
  ["COc1cccc(-c2nn(-c3ccccc3)cc2/C=C(\\C#N)C(=O)NCCCn2ccnc2)c1", "FALSE"],
  ["CCCCC(CC)CNC(=O)CCCCn1c(=O)[nH]c2ccsc2c1=O (stereo unspecified)", "FALSE"],
  ["O=C(CSCc1ccccc1Cl)NNC(=O)c1ccccc1", "FALSE"],
  ["Nc1ccc(OCC(O)C[n+]2ccc(CCS(=O)(=O)[O-])cc2)cc1 (stereo unspecified)", "TRUE"],
  ["Cc1nn(-c2ccccc2)c2sc(C(=O)N(Cc3ccco3)C(C)C(=O)NC(C)(C)C)cc12 (stereo unspecified)", "FALSE"],
  ["O=C1c2ccccc2C(O)N1Cc1ccccc1 (stereo unspecified)", "FALSE"],
  ["Cc1ccc(-c2cc(C(F)(F)F)n3ncc(C(=O)N4CCCCC4c4cccnc4)c3n2)cc1 (stereo unspecified)", "FALSE"],
  ["O=S1(=O)CC(N2CCN(c3ccccn3)CC2)CN1Cc1ccc(F)cc1 (stereo unspecified)", "FALSE"],
  ["O=C(CCC(=O)c1cccs1)NC1CCCCCC1", "FALSE"],
  ["COC(=O)c1ccc(COc2cc([N+](=O)[O-])cc3cccnc23)cc1", "FALSE"],
  ["CCOC(=O)c1ccccc1NC(=O)c1c(N)n(C)c(=O)[nH]c1=O", "FALSE"],
  ["O=C(Nc1ccncc1)c1cc(-c2ccccn2)nc2ccc(Br)cc12", "TRUE"],
  ["CC(C)(C)CN1C(=O)C(=O)NC[C@H]1Cc1cccc2ccccc12", "FALSE"],
  ["COc1ccc2c(c1)C(=O)CC(c1ccccc1)O2 (stereo unspecified)", "FALSE"],
  ["COCc1ccc(C(=O)NC2CC(C)(C)Cc3c2cnn3-c2ccc(C)cc2)o1 (stereo unspecified)", "FALSE"],
  ["Cc1ccc2nc(-c3ccncc3)cc(C(=O)Nc3ccc(OC(F)F)cc3)c2c1", "FALSE"],
  ["CCc1ccc(S(=O)(=O)NCC(O)COc2ccc(OC)cc2)cc1 (stereo unspecified)", "FALSE"],
  ["COC(=O)c1ccc(SCc2ccccc2)nc1", "FALSE"],
  ["C[C@H]1Cn2cnc(C(=O)N[C@H](C)c3ccccc3)c2C(=O)N1", "FALSE"],
  ["COc1ccc(/C=C/C(=O)OCC(=O)NCc2cccs2)cc1OC", "FALSE"],
  ["Cc1ccccc1CN1CCN(CC(=O)NCc2ccccn2)C1=O", "FALSE"]
]}
